Activity calls are given as the source filed them.
# collection of Kd values tested on UniProtKB Q13627

Examples with their reported Kd follow.
COc1ccc(S(=O)(=O)N(C(C)=O)c2ccccc2/C=C/c2cc[n+]([O-])cc2)cc1    > 30 µM (inactive)
CC(C)c1cc(CNc2nc(Nc3cc(C4CC4)[nH]n3)cc(N3CCN(C)CC3)n2)on1    > 30 µM (inactive)
O=C(Nc1c[nH]nc1-c1nc2cc(CN3CCOCC3)ccc2[nH]1)NC1CC1    2.45 µM (active)
Cc1nc2cc(-c3nn(C(C)C)c4ncnc(N)c34)ccc2o1    > 30 µM (inactive)
CN(C[C@@H]1COCCO1)S(=O)(=O)Nc1ccc2ccc3ncc(-c4cnn(C)c4)cc3c(=O)c2c1    > 30 µM (inactive)

Now examine the next entry.
Query string: Missing value: Kd, UniProtKB Q13627, entry Cc1cc(C(=O)NOCCO)c(Nc2ccc(I)cc2F)n(C)c1=O . Fill in?
Result string: > 30 µM (inactive)

----------
target: UniProtKB Q14289
Sequence (Q14289 whole entry): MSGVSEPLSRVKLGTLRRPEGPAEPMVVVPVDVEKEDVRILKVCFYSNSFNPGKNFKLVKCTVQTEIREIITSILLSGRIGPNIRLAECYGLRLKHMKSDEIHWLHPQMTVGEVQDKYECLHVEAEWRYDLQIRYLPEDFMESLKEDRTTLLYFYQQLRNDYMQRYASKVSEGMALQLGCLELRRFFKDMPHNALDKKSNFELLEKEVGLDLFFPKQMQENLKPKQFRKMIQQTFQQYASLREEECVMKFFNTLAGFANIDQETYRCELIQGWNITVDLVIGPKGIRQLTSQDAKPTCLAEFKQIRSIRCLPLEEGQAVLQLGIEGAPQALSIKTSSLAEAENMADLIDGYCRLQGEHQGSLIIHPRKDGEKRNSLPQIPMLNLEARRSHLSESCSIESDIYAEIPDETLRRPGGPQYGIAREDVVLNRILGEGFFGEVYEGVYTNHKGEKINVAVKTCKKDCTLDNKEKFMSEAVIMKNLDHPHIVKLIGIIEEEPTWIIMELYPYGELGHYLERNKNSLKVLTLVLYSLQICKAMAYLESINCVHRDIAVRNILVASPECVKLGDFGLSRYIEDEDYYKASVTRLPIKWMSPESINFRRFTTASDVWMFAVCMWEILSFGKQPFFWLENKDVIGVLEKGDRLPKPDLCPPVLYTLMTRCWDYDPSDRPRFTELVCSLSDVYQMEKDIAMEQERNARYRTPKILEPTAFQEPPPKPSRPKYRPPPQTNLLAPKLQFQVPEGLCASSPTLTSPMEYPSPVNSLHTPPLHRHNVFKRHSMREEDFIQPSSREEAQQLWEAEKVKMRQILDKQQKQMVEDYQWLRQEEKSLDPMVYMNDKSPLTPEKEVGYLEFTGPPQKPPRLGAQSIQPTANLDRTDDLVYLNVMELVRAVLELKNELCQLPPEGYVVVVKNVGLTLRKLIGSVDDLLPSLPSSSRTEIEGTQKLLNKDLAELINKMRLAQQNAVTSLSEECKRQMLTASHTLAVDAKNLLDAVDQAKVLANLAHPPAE
Active and inactive are the calls of the source.
Pick one: active, inactive

Worked examples follow.
C#Cc1cccc(Nc2ncnc3cc(OC)c(OCCCCCCC(=O)NO)cc23)c1    inactive
C=CC(=O)Nc1cc2c(Nc3ccc(F)c(Cl)c3)ncnc2cc1C#CC(C)(C)N1CCN(C)CC1 [AV-412 FREE BASE]    inactive
Cn1cnc2c(F)c(Nc3ccc(Br)cc3F)c(C(=O)NOCCO)cc21    inactive

Could you now look at the following molecule, please?
Query string: What outcome does the record of this test show for Cc1nc(Nc2n[nH]c3c2CN(C(=O)N[C@H](CN(C)C)c2ccccc2)C3(C)C)c2sccc2n1 ?
Result string: active

----------
target: Insulin receptor (Homo sapiens); note: in the data inactive means no Kd found up to 30 µM
Sequence (P06213 28-758 limits assumed): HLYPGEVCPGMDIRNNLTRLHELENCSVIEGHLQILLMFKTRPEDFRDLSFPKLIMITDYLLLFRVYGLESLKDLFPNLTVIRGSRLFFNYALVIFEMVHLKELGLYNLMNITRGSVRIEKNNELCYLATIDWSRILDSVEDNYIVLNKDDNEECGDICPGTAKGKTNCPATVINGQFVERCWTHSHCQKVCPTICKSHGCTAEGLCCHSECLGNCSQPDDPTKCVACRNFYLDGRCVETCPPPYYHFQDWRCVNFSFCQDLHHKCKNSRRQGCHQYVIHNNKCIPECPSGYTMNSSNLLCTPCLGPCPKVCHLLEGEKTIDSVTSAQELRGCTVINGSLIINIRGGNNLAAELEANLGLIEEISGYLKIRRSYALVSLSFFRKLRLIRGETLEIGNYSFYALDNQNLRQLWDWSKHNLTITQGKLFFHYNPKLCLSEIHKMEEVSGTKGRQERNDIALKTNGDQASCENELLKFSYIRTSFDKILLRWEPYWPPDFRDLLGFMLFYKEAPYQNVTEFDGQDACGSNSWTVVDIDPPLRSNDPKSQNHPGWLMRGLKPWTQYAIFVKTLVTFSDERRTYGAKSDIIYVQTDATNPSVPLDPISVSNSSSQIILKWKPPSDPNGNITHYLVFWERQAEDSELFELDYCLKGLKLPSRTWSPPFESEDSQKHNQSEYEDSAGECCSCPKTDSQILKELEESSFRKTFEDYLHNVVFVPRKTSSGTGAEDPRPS
Sequence (P06213 763-1382 limits assumed): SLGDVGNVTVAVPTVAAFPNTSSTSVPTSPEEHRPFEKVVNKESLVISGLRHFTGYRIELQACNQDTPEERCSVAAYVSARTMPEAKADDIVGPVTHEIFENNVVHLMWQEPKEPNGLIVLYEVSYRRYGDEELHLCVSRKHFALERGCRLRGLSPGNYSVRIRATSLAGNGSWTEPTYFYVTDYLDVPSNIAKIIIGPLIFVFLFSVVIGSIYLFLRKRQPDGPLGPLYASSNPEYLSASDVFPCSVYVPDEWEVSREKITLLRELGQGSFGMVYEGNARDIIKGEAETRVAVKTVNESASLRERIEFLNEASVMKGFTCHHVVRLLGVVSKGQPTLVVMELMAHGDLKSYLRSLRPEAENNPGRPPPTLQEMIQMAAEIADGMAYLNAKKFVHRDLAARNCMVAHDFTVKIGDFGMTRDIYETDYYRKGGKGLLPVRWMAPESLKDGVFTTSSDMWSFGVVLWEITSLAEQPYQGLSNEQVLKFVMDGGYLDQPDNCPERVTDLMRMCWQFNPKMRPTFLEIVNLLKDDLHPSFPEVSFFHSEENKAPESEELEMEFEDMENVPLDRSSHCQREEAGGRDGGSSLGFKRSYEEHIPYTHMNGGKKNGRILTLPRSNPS
Counter-ions that a name gives are not always drawn. Active and inactive are the calls of the source.
Pick one: TRUE = active, FALSE = inactive

Worked examples follow.
CNC(=O)c1cc(Oc2ccc(NC(=O)Nc3cc(C(C)(C)C)nn3-c3ccc4ncccc4c3)c(F)c2)ccn1 [REBASTINIB]    FALSE
NC1(c2ccc(-c3nc4ccn5c(=O)[nH]nc5c4cc3-c3ccccc3)cc2)CCC1 [MK-2206]    FALSE
C[C@@H](NC(=O)c1ncnc(N)c1Cl)c1ncc(C(=O)Nc2cc(C(F)(F)F)c(Cl)cn2)s1 [TOVORAFENIB]    FALSE
Cn1cc(-c2cnn3c(N)c(Br)c([C@@H]4CCCNC4)nc23)cn1 [SCH-900776]    FALSE
CCS(=O)(=O)N1CCN(c2ccc(Nc3ncc(C(N)=O)c(NC4CC4)n3)cc2)CC1 [Cerdulatinib Hydrochloride]    FALSE

Could you now look at the following compound, please?
Query string: What outcome does the record of this test show for CC(C)c1cc(CNc2nc(Nc3cc(C4CC4)[nH]n3)cc(N3CCN(C)CC3)n2)on1 [XL-228] ?
Result string: TRUE

----------
Molecular target: Serine/threonine-protein kinase LATS1 (Homo sapiens); note: in the data inactive means no Kd found up to 30 µM
Sequence (O95835 whole entry): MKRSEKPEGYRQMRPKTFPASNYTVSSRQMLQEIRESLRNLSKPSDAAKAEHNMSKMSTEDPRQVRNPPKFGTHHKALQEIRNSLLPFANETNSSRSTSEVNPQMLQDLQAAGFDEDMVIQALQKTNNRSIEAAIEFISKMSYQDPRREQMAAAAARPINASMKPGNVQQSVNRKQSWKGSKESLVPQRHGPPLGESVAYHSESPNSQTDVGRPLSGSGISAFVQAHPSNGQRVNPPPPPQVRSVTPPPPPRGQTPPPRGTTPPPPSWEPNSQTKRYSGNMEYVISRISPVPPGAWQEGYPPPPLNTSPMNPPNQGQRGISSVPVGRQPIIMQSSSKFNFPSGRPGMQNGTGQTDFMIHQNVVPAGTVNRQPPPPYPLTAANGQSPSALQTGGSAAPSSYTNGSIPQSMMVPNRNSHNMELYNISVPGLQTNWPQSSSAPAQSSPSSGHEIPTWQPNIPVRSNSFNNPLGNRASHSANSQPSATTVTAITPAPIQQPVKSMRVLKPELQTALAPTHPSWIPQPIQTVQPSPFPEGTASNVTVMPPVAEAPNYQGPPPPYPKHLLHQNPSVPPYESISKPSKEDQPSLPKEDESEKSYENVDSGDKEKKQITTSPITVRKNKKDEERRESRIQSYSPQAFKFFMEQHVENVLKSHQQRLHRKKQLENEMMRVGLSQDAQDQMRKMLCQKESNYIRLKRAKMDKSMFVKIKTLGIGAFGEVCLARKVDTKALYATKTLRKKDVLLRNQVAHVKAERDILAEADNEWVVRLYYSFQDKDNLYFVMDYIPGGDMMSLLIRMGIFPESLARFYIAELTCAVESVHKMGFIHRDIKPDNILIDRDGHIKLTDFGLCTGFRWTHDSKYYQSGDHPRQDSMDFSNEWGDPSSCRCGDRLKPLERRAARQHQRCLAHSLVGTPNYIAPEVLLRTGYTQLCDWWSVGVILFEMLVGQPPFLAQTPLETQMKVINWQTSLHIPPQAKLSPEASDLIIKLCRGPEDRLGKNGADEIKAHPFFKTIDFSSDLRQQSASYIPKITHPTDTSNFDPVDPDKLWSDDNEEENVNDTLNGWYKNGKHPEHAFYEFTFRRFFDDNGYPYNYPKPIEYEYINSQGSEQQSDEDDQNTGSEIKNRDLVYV
Activity calls are given as the source filed them.
Pick one: active, inactive

Cn1cc(-c2cnn3c(N)c(Br)c([C@@H]4CCCNC4)nc23)cn1 [SCH-900776]    active
Cc1cc(Nc2ncnc3ccc(NC4=NC(C)(C)CO4)cc23)ccc1Oc1ccn2ncnc2c1 [TUCATINIB]    inactive
CC(=O)c1cnc2ccc(-c3cc(Cl)c(O)c(Cl)c3)nc2c1N[C@H]1CC[C@H](CN(C)C)CC1    active
NC(=O)c1c(OCc2c(F)cc(Br)cc2F)nsc1NC(=O)NCCCCN1CCCC1 [OSI-632]    inactive

Query string: What outcome does the record of this test show for O=C(Nc1cc(C(F)(F)F)cc(C(F)(F)F)c1)c1cc(Cl)ccc1O [IMD-0354] ?
Result string: inactive

Query string: What outcome does the record of this test show for N#CC1(c2ccc(NC(=O)c3cccnc3NCc3ccncc3)cc2)CCCC1 [RIVOCERANIB] ?
Result string: inactive

Query string: What outcome does the record of this test show for Nc1ncnc2c1c(-c1cccc(OCc3ccccc3)c1)cn2[C@H]1C[C@@H](CN2CCC2)C1 [AEW-541] ?
Result string: active

Query string: What outcome does the record of this test show for Cc1nc(NC(=O)N2CCC[C@H]2C(N)=O)sc1-c1ccnc(C(C)(C)C(F)(F)F)c1 [ALPELISIB] ?
Result string: inactive
